# System: Brain
# experiment: Drug level in rat brain at 10 mg/kg, po after 2 hrs measured per gram of tissue
# Format: ADME, organism-based
# Parameters: dose 10 mg/kg, route oral
# condition-details: in vivo
metric: Drug uptake (nmol/g)
Give bare numbers, in nmol/g.

Take a look at these entries with their results.
{"mol": "O=C1NC2(CCN(C(=O)Nc3cnc(-c4ccccc4)cn3)CC2)c2ccccc21", "test-target": "Brain", "Drug uptake, nmol/g": 0.029}
{"mol": "O=C1OC2(CCN(C(=O)Nc3cc(-c4ccc(Cl)cc4)no3)CC2)c2ccccc21", "test-target": "Brain", "Drug uptake, nmol/g": 1.09}
{"mol": "O=C1OC2(CCN(C(=O)Nc3cnc(-c4ccccc4)cn3)CC2)c2ccccc21", "test-target": "Brain", "Drug uptake, nmol/g": 2.92}

// moving on: another record for Drug uptake
Quick check: Drug uptake of O=C1OC2(CCN(C(=O)Nc3ncc(-c4ccccc4)cn3)CC2)c2ccccc21 ?
0.26

====

# experiment: Oral bioavailability in rat at 3 mg/kg, iv and 10 mg/kg, po
# Assay type: ADME, organism-based
# condition-details: in vivo
Task for the reader: assign each of the following compounds its reported bioavailability.
Answers are plain numbers, in %.

Below are worked cases with known answers.
{"mol": "O=C1OC2(CCN(C(=O)Nc3cnc(-c4ccccc4)cn3)CC2)c2ccccc21", "units-of-measure": "%", "measured-value": 49}
{"mol": "O=C1NC2(CCN(C(=O)Nc3cnc(-c4ccccc4)cn3)CC2)c2ccccc21", "units-of-measure": "%", "measured-value": 8}

Attention now turns to another entry.
Name the recorded bioavailability for O=C1Cc2ccccc2C2(CCN(C(=O)Nc3cnc(-c4ccccc4)cn3)CC2)N1 .
3
